Where do the numbers come from? From patent US20250042957A1.

Molecular target: T1, VEGF165 (UniProt P15692-4 27-191, biotinylated in the ELISA of Example 4 (site not stated))
T1 construct: also called biotinylated VEGF165; soluble VEGF
T1 sequence (P15692 other isoform, or with tags, fused parts or gaps limits assumed): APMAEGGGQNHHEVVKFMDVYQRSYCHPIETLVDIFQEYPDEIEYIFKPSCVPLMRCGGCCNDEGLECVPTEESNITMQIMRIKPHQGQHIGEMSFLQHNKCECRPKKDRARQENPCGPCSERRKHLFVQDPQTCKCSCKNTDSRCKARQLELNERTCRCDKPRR
Assay: SPR (ProteOn), VEGF165 immobilized, multi-trace 50-0.195 nM, 25 C
Readout Type: Kd (nM)
State the answer as a number, implicitly in nM.

Example binders with recorded Kd:
## Task Return reported Kd; argument: 2-in-1 DARPin 17 (SEQ ID NO: 10) (designed binder, N3C mono-domain; purified by its His-tag) DLGKKLLQAARAGQLDEVRELLKAGADVNAKDSTGWTPLHLAAPWGHPEIVEVLLKAGADVNAKDFQGWTPLHLAAAAGHLEIVEVLLKAGADVNAKDWLGWTPLHLAASHGHLEIVEVLLKAGADVNAQDKSGKTPADLAARAGHQDIAEVLQKAA
## Result 0.18

## Task Return reported Kd; argument: 2-in-1 DARPin 19 (SEQ ID NO: 12) (designed binder, N4C mono-domain; purified by its His-tag) DLDKKLLEAARAGQDDEVRILLKAGADVNAKDSTGWTPLHLAAPWGHPEIVEVLLKAGADVNAKDFKGWTPLHLAAAAGHLEIVEVLLKAGADVNAKDVYGWTPLHLAAAAGHLEIVEVLLKAGADVNAKDWLGWTPLHLAASHGHLEIVEVLLKAGADVNAQDKSGKTPADLAARAGHQDIAEVLQKAA
## Result 68.5

## Task Return reported Kd; argument: 2-in-1 DARPin 20 (SEQ ID NO: 13) (designed binder, N4C mono-domain; purified by its His-tag) DLDKKLLEAARAGQDDEVRILLKAGADVNAKDSTGWTPLHLAAPWGHPEIVEVLLKAGADVNAKDFQGWTPLHLAAAAGHLEIVEVLLKAGADVNAKDVYGWTPLHLAAAAGHLEIVEVLLKAGADVNAKDWLGWTPLHLAASHGHLEIVEVLLKAGADVNAQDKSGKTPADLAARAGHQDIAEVLQKAA
## Result 0.69

## Task Return reported Kd; argument: 2-in-1 DARPin 12 (SEQ ID NO: 7) (designed binder, N3C mono-domain; purified by its His-tag) DLDKKLLEAARAGQDDEVRILLKAGADVNAKDSTGWTPLHLAAPWGHPEIVEVLLKAGADVNAKDVYGWTPLHLAAAAGHLEIVEVLLKAGADVNAKDWLGWTPLHLAASHGHLEIVEVLLKAGADVNAQDKSGKTPADLAARAGHQDIAEVLQKAA
## Result 6.66

Here is another binder to look at.
## Task Return reported Kd; argument: 2-in-1 DARPin 15 (SEQ ID NO: 9) (designed binder, N3C mono-domain; purified by its His-tag) DLDKKLLEAARAGQDDEVRILLKAGADVNAKDSTGWTPLHLAAPWGHPEIVEVLLKAGADVNAKDFQGWTPLHLAAAAGHLEIVEVLLKAGADVNAKDWLGWTPLHLAASHGHLEIVEVLLKAGADVNAQDKSGKTPADLAARAGHQDIAEVLQKAA
## Result 0.02
